Recorded enrichment for the following variants
B1: peptide HD2 (from tick evasin EVA4) / CCL17 (biotinylated, synthetic) (parent)
chain 1: EEDDYTAYAPLTCYFT
chain 2: ARGTNVGRECCLEYFKGAIPLRKLKTWYQTSEDCSRDAIVFVTVQGRAICSDPNNKRVKNAVKYLQSLERS

variants of: B1; conditions: with CCL17 (biotinylated, synthetic); scale: log2
recorded-metric: enrichment

>>> recorded_value("chain 1 A9K")
-6.73
>>> recorded_value("chain 1 Y8K")
-6.17
>>> recorded_value("chain 1 P10M")
-8.6
>>> recorded_value("chain 1 Y5R")
-7.15
>>> recorded_value("chain 1 C13K")
-9.23
>>> recorded_value("chain 1 C13H")
-8.75
>>> recorded_value("chain 1 Y14N")
-7
>>> recorded_value("chain 1 A9P")
-7.91
>>> recorded_value("chain 1 P10K")
-7.07
>>> recorded_value("chain 1 Y14E")
-8.87
>>> recorded_value("chain 1 Y8N")
-8.23
>>> recorded_value("chain 1 P10N")
-8.12
>>> recorded_value("chain 1 Y8Q")
-6.46
